The reported measurements were obtained from patent US12171758B1.

- experimentalDetails: Solubility measurement in organic solvents at 25° C. for 24 hours
- Type: physicochemical
- conditionParameters: organic solvent or mixture, thermodynamic from solid; Acetone, 25° C., 24 hrs
recordedMetric: solubility at 24 h (µg/mL)
Numbers only, in µg/mL.

Which solubility at 24 h value belongs to CCc1cc(F)c2nc(N3CCC(NC4CCOCC4)CC3)c(-c3nc(C)no3)c(C)c2c1.Cl [HCl salt Type A] ? 91

----------
- experimentalDetails: Log D7.6 shake-flask (octanol/phosphate buffer) and Log P calculation
- Type: physicochemical
- conditionParameters: pH 7.6
- Experimental: The actual weight was recorded. The solid was dissolved and diluted to volume with ACN:H2O (1:1, v/v). Stock solutions were prepared in duplicate. […] The 1/50 solutions were used to collect spectra with full wave scanning from 190 nm to 700 nm and absorbance at 235 nm, 270 nm, 290 nm and 365 nm using spectrophotometer with the background subtracted. […] Log D7.6 was calculated as an average of the log 10 of Dow based on three runs. […]
recordedMetric: logD
Answers are plain numbers.

Which logD value belongs to CCc1cc(F)c2nc(N3CCC(NC4CCOCC4)CC3)c(-c3nc(C)no3)c(C)c2c1.Cl [HCl salt Type A] ? 2.87
